System: Plasmodium falciparum
Test: GSK_TCMDC: Inhibition of Plasmodium falciparum 3D7 in whole red blood cells, using parasite LDH activity as an index of growth. Test compounds present at 2uM
Format: functional
Measured Inhibition of individual entries
The number alone won't do; follow it with the unit.

// solved cases for Inhibition follow
Compound	Val
CCc1ccc(CN2CCC(CNC(=O)c3cc(-c4ccccc4Cl)cs3)C2)cc1.O=C(O)C(F)(F)F (configuration not stated)	98%
CCCC1(NC[C@@H](O)[C@H](Cc2ccccc2)NC(=O)c2cc(NCC)cc(N3CCCCS3(=O)=O)c2)CCCCC1.Cl	100%
COC(=O)c1cc(C(O)CNC(C)CCCc2ccccc2)ccc1O.Cl (configuration not stated)	99%
COc1ccc(CNCc2ccsc2)cc1-c1ccc(S(=O)(=O)NCCN2CCCC2)s1.O=C(O)C(F)(F)F	100%
c1ccc2cc3c(NCCN4CCOCC4)ccnc3cc2c1	99%
CO/C(=C\C=C\c1cc2cc(Cl)c(Cl)cc2[nH]1)C(=O)NCCCN1CC(C)N(C)CC1C (configuration not stated)	92%

Now take the following compound into account.
*Q* Please give the measured Inhibition for this compound: Cc1[nH]c(C)c(-c2ccc(-c3cc(C(F)(F)F)cc(C(F)(F)F)c3)nc2)c(=O)c1Br
*A* 98%
